- studyTarget: T1, recombinant his-tag human LAG3-ECD protein (human, UniProt P18627 23-450)
- T1 construct: extracellular domain; not shown: his tag
- T1 sequence (looked up): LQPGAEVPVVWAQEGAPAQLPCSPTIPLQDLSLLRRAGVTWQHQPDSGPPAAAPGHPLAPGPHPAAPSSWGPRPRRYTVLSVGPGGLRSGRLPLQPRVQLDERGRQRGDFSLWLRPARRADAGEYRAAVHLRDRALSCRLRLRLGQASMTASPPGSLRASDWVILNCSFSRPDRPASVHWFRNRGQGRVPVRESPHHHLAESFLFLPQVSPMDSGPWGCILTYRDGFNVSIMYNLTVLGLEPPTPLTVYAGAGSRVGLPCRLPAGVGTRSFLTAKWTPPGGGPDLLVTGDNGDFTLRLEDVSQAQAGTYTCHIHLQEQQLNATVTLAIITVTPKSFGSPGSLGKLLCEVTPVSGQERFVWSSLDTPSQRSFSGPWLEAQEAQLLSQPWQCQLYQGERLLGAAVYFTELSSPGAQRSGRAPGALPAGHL
- measurementProtocol: SPR Biacore T200, capture method as Example 2.7
The following binders are listed with their measured kon values.
Field format: number, assumed M⁻¹ s⁻¹, no unit text.

147H 3669 (antibody, V domains shown) VH: EVQLVQSGAEVKKPGASVKVSCKASGYLFTNYWLGWIKQAPGQGLEWIGDIYPGGDYIVYNEKFKGKATLTADTSISTAYMELSRLRSDDTAVYYCARPNLPGDYWGQGTTVTVSS VL: DIVMTQSPLSLPVTPGEPASISCRSSKSLLHSNAITYLYWYLQKPGQSPQLLIYQVSNLASGVPDRFSGSGSGTDFTLKISRVEAEDVGVYYCAQNLELPWTFGGGTKVEIK: 720000
147H 3508 (antibody, V domains shown) VH: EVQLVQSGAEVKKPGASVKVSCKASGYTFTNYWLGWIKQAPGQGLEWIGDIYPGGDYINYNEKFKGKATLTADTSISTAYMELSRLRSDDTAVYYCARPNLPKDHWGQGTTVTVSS VL: DIVMTQSPLSLPVTPGEPASISCRSSKSLLHSNAITYLYWYLQKPGQSPQLLIYQVSNLASGVPDRFSGSGSGTDFTLKISRVEAEDVGVYYCGQNLELPWTFGGGTKVEIK: 2.9e+06
147H 3809 (antibody, V domains shown) VH: EVQLVQSGAEVKKPGASVKVSCKASGYLFTNYWLGWIKQAPGQGLEWIGDIYPGGDYIVYNEKFKGKATLTADTSISTAYMELSRLRSDDTAVYYCARPNLPKDHWGQGTTVTVSS VL: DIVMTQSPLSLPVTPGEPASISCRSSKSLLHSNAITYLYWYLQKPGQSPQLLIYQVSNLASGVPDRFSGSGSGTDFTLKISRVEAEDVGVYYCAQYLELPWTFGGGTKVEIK: 4.3e+06
147H 3550 (antibody, V domains shown) VH: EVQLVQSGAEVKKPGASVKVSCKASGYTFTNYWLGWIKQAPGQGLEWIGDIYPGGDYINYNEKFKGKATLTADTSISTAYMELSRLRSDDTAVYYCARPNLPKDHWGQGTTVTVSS VL: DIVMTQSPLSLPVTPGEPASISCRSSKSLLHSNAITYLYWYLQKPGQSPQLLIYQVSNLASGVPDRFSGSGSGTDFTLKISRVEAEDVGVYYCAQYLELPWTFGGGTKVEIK: 8.7e+06

I would be grateful if you could share the reported kon for 147H-13 (antibody, V domains shown, Common light chain; human gamma 1 / kappa constant domains; also called 147H4-13) VH: EVQLVQSGAEVKKPGASVKVSCKASGYTFTNYWLGWIKQAPGQGLEWIGDIYPGGDYINYNEKFKGKATLTADTSISTAYMELSRLRSDDTAVYYCARPNLPGDYWGQGTTVTVSS VL: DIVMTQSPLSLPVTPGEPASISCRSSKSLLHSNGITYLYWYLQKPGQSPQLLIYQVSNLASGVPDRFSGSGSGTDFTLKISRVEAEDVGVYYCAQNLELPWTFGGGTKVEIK .
2.2e+06
